# Test system: K562 CRISPRi cells
# test_name: Perturb-seq pooled growth measurement (sgRNA counts, growth phenotype γ, relative activity)
# Assay type: cell-based, human
# stated_conditions: pooled growth phenotype γ of the Perturb-seq sgRNA, day 5, K562 CRISPRi cells
reported_metric: gamma_day5
Form field (numeric): enter value without unit.

# substance, gamma_day5
records = [
    ("GNB2L1_ + _180670873.23-P1P2_08 (guide GTGCAAGGTGGCGGCAGGAG; listed as DNA, chemistry not fully specified)", "−0.3061"),
]

Next item in the queue.
Item ATP5E_ −_57607036.23-P1P2_14 (guide GGTGTCCAGGGGCACTGTGT; listed as DNA, chemistry not fully specified) has what recorded gamma_day5?
−0.01233

* * *

# Test system: K562 CRISPRi cells
# test_name: Perturb-seq pooled growth measurement (sgRNA counts, growth phenotype γ, relative activity)
# Assay type: cell-based, human
# stated_conditions: pooled growth phenotype γ of the Perturb-seq sgRNA, day 5, K562 CRISPRi cells
reported_metric: gamma_day5
Form field (numeric): enter value without unit.

Take a look at these entries with their results.
# substance, gamma_day5
records = [
    ("POLR2H_ + _184081251.23-P1P2_00 (guide GGGGCCACGAGAGCAGCAGA; listed as DNA, chemistry not fully specified)", "−1.149"),
    ("BCR_ + _23523092.23-P1P2_07 (guide GCGCGCGGGGCTCGTCTCAG; listed as DNA, chemistry not fully specified)", "−0.8707"),
    ("HSPA9_ −_137911079.23-P1P2_00 (guide GGAGCTGCGCGATGCGGTGG; listed as DNA, chemistry not fully specified)", "−0.95"),
]

Item: EIF2S1_ −_67827080.23-P1P2_01 (guide GAGCGAAACGCACGCTGAGG; listed as DNA, chemistry not fully specified) Test system: K562 CRISPRi cells Read-out: gamma_day5 Value: ?
−0.4467

Same again, this time with CDC23_ −_137548987.23-P1P2_02 (guide GACAGCTACCGGGACCATGG; listed as DNA, chemistry not fully specified)
−1.087

Same again, this time with EIF2S1_ −_67827080.23-P1P2_07 (guide GAGCGAAGCGCTCGCTGAGG; listed as DNA, chemistry not fully specified)
−0.08307

* * *

# Tested on: K562 CRISPRi cells
# test_name: Perturb-seq pooled growth measurement (sgRNA counts, growth phenotype γ, relative activity)
# Type: cell-based, human
# stated_conditions: γ relative to perfectly matched sgRNA (_00) of the same gene, day 5
reported_metric: relative_activity_day5
Form field (numeric): enter value without unit.

Take a look at these entries with their results.
# substance, relative_activity_day5
rows = [
    ("HSPA5_ + _128003624.23-P1P2_00 (guide GAGCCGAGTAGGCGACGGTG; listed as DNA, chemistry not fully specified)", 1),
    ("TUBB_ + _30688126.23-P1_00 (guide GCGGCAGGAAGGTTCTGAGA; listed as DNA, chemistry not fully specified)", 1),
    ("ATP5E_ −_57607036.23-P1P2_00 (guide GGTGTCCAGGGGCACTCTGT; listed as DNA, chemistry not fully specified)", 1),
]

Item ALDOA_ + _30077139.23-P1P2_00 (guide GGTCACCAGGACCCCTTCTG; listed as DNA, chemistry not fully specified) has what recorded relative_activity_day5?
1

Same again, this time with SEC61A1_ −_127771295.23-P1_00 (guide GGCACTGACGTGTCTCTCGG; listed as DNA, chemistry not fully specified)
1

Same again, this time with ALDOA_ + _30077139.23-P1P2_07 (guide GGTCACCAGGCCCCCTTCTG; listed as DNA, chemistry not fully specified)
0.8744
